Just for reference, ChEMBL document CHEMBL5724914 is where these values come from.

# experimental.setup: human gut metagenome, 24 h, 2 µM; also: call rule not given here
experimental.readout: Bacterial Biotransformation

Here is how some compounds turned out for Bacterial Biotransformation.
CCCCCNC(=N)N/N=C/c1c[nH]c2ccc(OC)cc12.O=C(O)/C=C\C(=O)O [TEGASEROD MALEATE]: Compound NOT metabolized
COc1ccnc(C[S+]([O-])c2nc3ccc(OC(F)F)cc3[nH]2)c1OC (centres undefined) [PANTOPRAZOLE]: Compound metabolized
CN[C@H]1CC[C@@H](c2ccc(Cl)c(Cl)c2)c2ccccc21 [SERTRALINE]: Compound NOT metabolized
CNNCc1ccc(C(=O)NC(C)C)cc1 [PROCARBAZINE]: Compound metabolized
Cc1nc(Nc2ncc(C(=O)Nc3c(C)cccc3Cl)s2)cc(N2CCN(CCO)CC2)n1 [DASATINIB ANHYDROUS]: Compound metabolized
CC(C)(C)NCC(O)c1cc(Cl)c(N)c(Cl)c1 (centres undefined) [CLENBUTEROL]: Compound NOT metabolized
OCCN(CCO)c1nc(N2CCCCC2)c2nc(N(CCO)CCO)nc(N3CCCCC3)c2n1 [DIPYRIDAMOLE]: Compound metabolized
CN1CCC(OC(c2ccccc2)c2ccccc2)CC1: Compound NOT metabolized

Let's switch to this compound now.
Q) Return Bacterial Biotransformation for the following compound: CCN1CCCC1CNC(=O)c1cc(S(=O)(=O)CC)c(N)cc1OC (centres undefined) [AMISULPRIDE]
A) Compound NOT metabolized

---

# protocol.details: The drug is tested on Z-004 corresponding to metagenome with ENA study accession number: PRJEB37062 and ENA sample accession number: ERS12561804 for biotransformation under anaerobic condition. The drug concentrations were measured over 9 timepoints collected between 0 and 24 hours of incubation by liquid-chromatography-coupled mass spectrometry (LC–MS)
# experimental.setup: 2 µM
experimental.readout: Bacterial Biotransformation

O=C(CCCN1CCC2(CC1)C(=O)NCN2c1ccccc1)c1ccc(F)cc1 [SPIPERONE]: Compound NOT metabolized
CC(C)NCC(O)COc1ccc(CC(N)=O)cc1 (centres undefined) [ATENOLOL]: Compound NOT metabolized
CC(=O)O[C@H]1C(=O)[C@@]2(C)[C@H]([C@H](OC(=O)c3ccccc3)[C@]3(O)C[C@H](OC(=O)[C@H](O)[C@@H](NC(=O)c4ccccc4)c4ccccc4)C(C)=C1C3(C)C)[C@]1(OC(C)=O)CO[C@@H]1C[C@@H]2O [PACLITAXEL]: Compound NOT metabolized

---

# protocol.details: The drug is tested on Z-011 corresponding to mouse gut metagenome with ENA study accession number: PRJEB37062 and ENA sample accession number: ERS12561811 for biotransformation under anaerobic condition. The drug concentrations were measured over 9 timepoints collected between 0 and 24 hours of incubation by liquid-chromatography-coupled mass spectrometry (LC–MS)
# experimental.setup: 2 µM
experimental.readout: Bacterial Biotransformation

Example cases with answers are listed next.
COc1ccc(Cc2nccc3cc(OC)c(OC)cc23)cc1OC [PAPAVERINE]: Compound NOT metabolized
CC(=O)Nc1ccc(OC(C)=O)cc1 [DIACETAMATE]: Compound metabolized
CCN1CCCC1CNC(=O)c1cc(S(=O)(=O)CC)c(N)cc1OC (stereo unspecified) [AMISULPRIDE]: Compound NOT metabolized
O=C(CCCN1CCC2(CC1)C(=O)NCN2c1ccccc1)c1ccc(F)cc1 [SPIPERONE]: Compound NOT metabolized

Next:
Q) Tell us which Bacterial Biotransformation value is on record for CCOC(=O)C1=C[C@]2(CC)CCCN3CCc4c(n1c1ccccc41)[C@@H]32 [VINPOCETINE]
A) Compound NOT metabolized

---

# protocol.details: The drug is tested on Z-024 corresponding to pig gut metagenome with ENA study accession number: PRJEB37062 and ENA sample accession number: ERS12561823 for biotransformation under anaerobic condition. The drug concentrations were measured over 9 timepoints collected between 0 and 24 hours of incubation by liquid-chromatography-coupled mass spectrometry (LC–MS)
# experimental.setup: 2 µM
experimental.readout: Bacterial Biotransformation

Observe how each entry below is paired with its result.
CC(=O)OCC(CCn1cnc2cnc(N)nc21)COC(C)=O: Compound metabolized
CN1CCC(OC(c2ccccc2)c2ccccc2)CC1: Compound metabolized
COc1cc(NC(C)CCCN)c2ncccc2c1.O=P(O)(O)O.O=P(O)(O)O (stereo not given) [PRIMAQUINE PHOSPHATE]: Compound NOT metabolized
C#C[C@]1(OC(C)=O)CC[C@H]2[C@@H]3CCC4=C[C@@H](OC(C)=O)CC[C@@H]4[C@H]3CC[C@@]21C [ETHYNODIOL DIACETATE]: Compound metabolized
COc1cc2nc(N3CCN(C(=O)C4COc5ccccc5O4)CC3)nc(N)c2cc1OC.CS(=O)(=O)O (stereo not given) [DOXAZOSIN MESYLATE]: Compound NOT metabolized

Q) Look up and report measured Bacterial Biotransformation for this entry: `O=C1CC2(CCCC2)CC(=O)N1CCCCN1CCN(c2ncccn2)CC1`
A) Compound NOT metabolized

Q) Identify measured Bacterial Biotransformation corresponding to `COc1ccc(Cc2nccc3cc(OC)c(OC)cc23)cc1OC`
A) Compound metabolized

Q) For the molecule `O=C(CCCN1CCC2(CC1)C(=O)NCN2c1ccccc1)c1ccc(F)cc1` , report Bacterial Biotransformation.
A) Compound NOT metabolized

Q) # return recorded Bacterial Biotransformation for input COC(=O)[C@H](c1ccccc1Cl)N1CCc2sccc2C1.O=S(=O)(O)O [CLOPIDOGREL BISULFATE]
A) Compound metabolized

Q) Assign Bacterial Biotransformation to the following record: `Cc1ccc(NC(=O)c2ccc(CN3CCN(C)CC3)cc2)cc1Nc1nccc(-c2cccnc2)n1`
A) Compound NOT metabolized

---

# experimental.setup: human gut metagenome, 24 h, 2 µM
experimental.readout: Bacterial Biotransformation

Please review the following examples before continuing.
O=C1CN2Cc3c(ccc(Cl)c3Cl)N=C2N1 [ANAGRELIDE]: Compound metabolized
CN(C)CCOC(C)(c1ccccc1)c1ccccn1.O=C(O)CCC(=O)O (configuration not stated) [DOXYLAMINE SUCCINATE]: Compound NOT metabolized
C=C[C@H]1CN2CC[C@H]1C[C@H]2[C@H](O)c1ccnc2ccc(OC)cc12.C=C[C@H]1CN2CC[C@H]1C[C@H]2[C@H](O)c1ccnc2ccc(OC)cc12.O.O.O=S(=O)(O)O [QUININE SULFATE]: Compound metabolized
N=C(N)NC(=O)Cc1c(Cl)cccc1Cl: Compound NOT metabolized
CN(C/C=C/C#CC(C)(C)C)Cc1cccc2ccccc12: Compound NOT metabolized

Q) State its Bacterial Biotransformation for this molecule: CC(=O)OCC(=O)[C@@]1(OC(C)=O)[C@@H](C)C[C@H]2[C@@H]3C[C@H](F)C4=CC(=O)C=C[C@]4(C)[C@@]3(F)[C@@H](O)C[C@@]21C [DIFLORASONE DIACETATE]
A) Compound metabolized

Q) Find the measured Bacterial Biotransformation of `CC#CCn1c(N2CCC[C@@H](N)C2)nc2c1c(=O)n(Cc1nc(C)c3ccccc3n1)c(=O)n2C` and report it.
A) Compound NOT metabolized

---

# protocol.details: The drug is tested on Z-023 corresponding to metagenome with ENA study accession number: PRJEB37062 and ENA sample accession number: ERS12561822 for biotransformation under anaerobic condition. The drug concentrations were measured over 9 timepoints collected between 0 and 24 hours of incubation by liquid-chromatography-coupled mass spectrometry (LC–MS)
# experimental.setup: 2 µM
experimental.readout: Bacterial Biotransformation

Recorded Bacterial Biotransformation, per entry:
CN1CCCCC1CCN1c2ccccc2Sc2ccc([S+](C)[O-])cc21.O=S(=O)(O)c1ccccc1 (stereo not drawn) [MESORIDAZINE BESYLATE]: Compound NOT metabolized
Nc1nc(NC2CC2)c2ncn([C@H]3C=C[C@@H](CO)C3)c2n1.Nc1nc(NC2CC2)c2ncn([C@H]3C=C[C@@H](CO)C3)c2n1.O=S(=O)(O)O [ABACAVIR SULFATE]: Compound NOT metabolized
C[N+]12CCC(CC1)C(OC(=O)C(O)(c1ccccc1)c1ccccc1)C2.[Br-] (stereo not drawn) [CLIDINIUM BROMIDE]: Compound metabolized
COc1ccc2cc([C@H](C)C(=O)O)ccc2c1: Compound NOT metabolized
CCCCCNC(=N)N/N=C/c1c[nH]c2ccc(OC)cc12.O=C(O)/C=C\C(=O)O [TEGASEROD MALEATE]: Compound metabolized

Q) Annotate the compound CC(CCc1ccccc1)NCC(O)c1ccc(O)c(C(N)=O)c1 (stereo not drawn) with its measured Bacterial Biotransformation.
A) Compound metabolized

Q) For the compound CN(C)C(=O)Oc1cc(OC(=O)N(C)C)cc(C(O)CNC(C)(C)C)c1 (stereo not drawn) , give its measured Bacterial Biotransformation value.
A) Compound metabolized

Q) Retrieve Bacterial Biotransformation measured for CCOC(=O)[C@H](CCc1ccccc1)N[C@@H](C)C(=O)N1CCC[C@H]1C(=O)O.O=C(O)/C=C\C(=O)O [ENALAPRIL MALEATE] and print it.
A) Compound metabolized
